The entries below are paired with their reported Ratio IC50.
Experiment: Selectivity index, ratio of IC50 for rat DNA polymerase beta to IC50 for calf thymus DNA polymerase alpha
Please reply with the value in numeric form only.

Consider the following illustrative entries.
INSERT INTO assay_data (compound, reported_metric, observed) VALUES
  ('CC12C=C(O)C(=O)C=C1c1cccc(O)c1C(=O)O2 (stereo unspecified)', 'Ratio IC50', 371),
  ('CCCCCCCCCCCCOc1cc(O)c2c(c1)C1=CC(=O)C(O)=CC1(C)OC2=O (stereo unspecified)', 'Ratio IC50', 183),
  ('CC12C=C(O)C(=O)C=C1c1cc(O)cc(O)c1C(=O)O2 (stereo unspecified) [DESMETHYLDEHYDROALTENUSIN]', 'Ratio IC50', 142),
  ('CCCCCCOc1cc(O)c2c(c1)C1=CC(=O)C(O)=CC1(C)OC2=O (stereo unspecified)', 'Ratio IC50', 267),
  ('COc1cc(O)c2c(c1)C1=CC(=O)C(O)=CC1(C)OC2=O (stereo unspecified) [DEHYDROALTENUSIN]', 'Ratio IC50', 94.1);

Next:
Incoming: Can you look up the measured Ratio IC50 of CCCOc1cc(O)c2c(c1)C1=CC(=O)C(O)=CC1(C)OC2=O (stereo unspecified) for me?
Outgoing: 194
